# System: CCRIS mutagenicity, Ames/micronucleus/aberration tests
# test: CCRIS mutagenicity studies
# experimentalContext: Test System: AMES SALMONELLA TYPHIMURIUM; Strain/Indicator: TA104; Metabolic Activation: NONE; Method: STANDARD PLATE
Active and inactive are the calls of the source. No rule for the calls is given here.
Return exactly one item of YES = active, NO = inactive

Req: For C=CCC1=C(C)C(OC(=O)[C@@H]2[C@@H](C=C(C)C)C2(C)C)CC1=O (stereo not given in full) , which call appears in the assay record?
Resp: NO

Req: What call does the record list for Cc1c(N(C)C)c(=O)n(-c2ccccc2)n1C ?
Resp: NO

Req: Please state the recorded outcome for this compound: Oc1c(Cl)ccc(Cl)c1Cl
Resp: NO

Req: Record lookup: outcome of this test for c1ccc(C2CO2)cc1 (stereo not given) ?
Resp: YES

Provenance of the data: PubChem BioAssay AID1259407
